assay: Plasma and lung pharmacokinetics of nintedanib esylate, oral vs intratracheal aerosol; type: in vivo, C57BL/6 mice; conditions: female, C57BL/6, mouse, inhaled or intranasal; 10.0 mg/kg IT; Plasma
QUANTITY_KIND: AUC(0-t) (ng·h/mL)
One number for each entry, in ng·h/mL.

Q: Need AUC(0-t) of COC(=O)c1ccc2c(c1)NC(=O)/C2=C(\Nc1ccc(N(C)C(=O)CN2CCN(C)CC2)cc1)c1ccccc1 [Nintedanib esylate] , thanks.
Ans: 600

* * *

test: Solvent solubility screen; format: physicochemical; conditions: methanol, 40 °C, organic solvent or mixture, thermodynamic from solid; read-out: Approximate Solubility
QUANTITY_KIND: solubility

Q: Need solubility of COC(=O)c1ccc2c(c1)NC(=O)/C2=C(\Nc1ccc(N(C)C(=O)CN2CCN(C)CC2)cc1)c1ccccc1 , thanks.
Ans: < 11 mg/mL

* * *

assay: Inhaled pharmacokinetics of fixed combination nintedanib esylate and pirfenidone; assay type: in vivo, C57BL/6 mice; details: female, C57BL/6, mouse, inhaled or intranasal, 10.0 mg/kg each IT, Lung (whole lung homogenate)
Could you please report measured Cmax for the items listed next?
Answers are plain numbers, in ng/g.

COC(=O)c1ccc2c(c1)NC(=O)/C2=C(\Nc1ccc(N(C)C(=O)CN2CCN(C)CC2)cc1)c1ccccc1 [Nintedanib esylate]
171000

Lab note: next compound to report on.
Q: Need Cmax of Cc1ccc(=O)n(-c2ccccc2)c1 , thanks.
Ans: 279000

* * *

experiment: Inhaled pharmacokinetics of fixed combination nintedanib esylate and pirfenidone; format: in vivo, C57BL/6 mice; details: female, C57BL/6, mouse, inhaled or intranasal, 10.0 mg/kg each IT, Plasma
QUANTITY_KIND: AUC(0-t) (ng·h/mL)
Give bare numbers, in ng·h/mL.

Cc1ccc(=O)n(-c2ccccc2)c1 [Pirfenidone]
3800

Q: Need AUC(0-t) of COC(=O)c1ccc2c(c1)NC(=O)/C2=C(\Nc1ccc(N(C)C(=O)CN2CCN(C)CC2)cc1)c1ccccc1 [Nintedanib esylate] , thanks.
Ans: 1000

* * *

experiment: Solvent solubility screen; format: physicochemical; conditions: water, 40 °C, water, thermodynamic from solid; read-out: Approximate Solubility
QUANTITY_KIND: solubility

Q: Need solubility of COC(=O)c1ccc2c(c1)NC(=O)/C2=C(\Nc1ccc(N(C)C(=O)CN2CCN(C)CC2)cc1)c1ccccc1 , thanks.
Ans: < 10000 µg/mL

* * *

assay: Plasma and lung pharmacokinetics of nintedanib esylate, oral vs intratracheal aerosol; format: in vivo, C57BL/6 mice; details: female, C57BL/6, mouse, inhaled or intranasal; 10.0 mg/kg IT; Plasma
QUANTITY_KIND: Cmax (ng/mL)
Give bare numbers, in ng/mL.

Q: Need Cmax of COC(=O)c1ccc2c(c1)NC(=O)/C2=C(\Nc1ccc(N(C)C(=O)CN2CCN(C)CC2)cc1)c1ccccc1 [Nintedanib esylate] , thanks.
Ans: 2700

* * *

test: Pattern stability screen of potential salts (40° C./75% RH, XRPD); type: physicochemical; details: Initial pattern 2
Structures can show the parent of a compound that is named as a salt.
QUANTITY_KIND: XRPD pattern after 72 hrs 40° C./75% RH

Please review the entries below; each comes with its answer.
COC(=O)c1ccc2c(c1)NC(=O)/C2=C(\Nc1ccc(N(C)C(=O)CN2CCN(C)CC2)cc1)c1ccccc1 [Nintedanib HCl]
2
COC(=O)c1ccc2c(c1)NC(=O)/C2=C(\Nc1ccc(N(C)C(=O)CN2CCN(C)CC2)cc1)c1ccccc1.O=P(O)(O)O.O=P(O)(O)O [Phosphate]
2
O=C(O)/C=C/C(=O)O [Fumarate]
2(MU)
COC(=O)c1ccc2c(c1)NC(=O)/C2=C(\Nc1ccc(N(C)C(=O)CN2CCN(C)CC2)cc1)c1ccccc1.O=S(=O)(O)CCO
2
O=S(=O)(O)O
1
CC(=O)O [Acetate]
1

Lab note: next compound to report on.
Q: Need XRPD pattern after 72 hrs 40° C./75% RH of COC(=O)c1ccc2c(c1)NC(=O)/C2=C(\Nc1ccc(N(C)C(=O)CN2CCN(C)CC2)cc1)c1ccccc1.CS(=O)(=O)O , thanks.
Ans: 1
